The molecules listed here are annotated with their viability, T/C.
- Tested on: 786-0 complex spheroids with HUVEC/MSC, growth % test/control
- Experimental Details: Anticancer human tumor 786-0 cell line growth inhibition [AhR];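 further: compound exposure lasted seven days before the read-out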
- Test Context: second compound 1 µM; first compound 0.0316 µM; active compounds read low

[
  {
    "Molecule": "COc1ccc([C@@H](O)c2cc(-c3ncnc4cc(N5CCOCC5)ccc34)c(F)cc2Cl)nn1 + Cc1cncc(-c2nc(NCCc3c[nH]c4ccccc34)c3ncn(C(C)C)c3n2)c1",
    "viability, T/C / %": 107
  },
  {
    "Molecule": "Cn1ncnc1C1c2n[nH]c(=O)c3cc(F)cc(c23)NC1c1ccc(F)cc1 (stereo unspecified) + Cc1ccccc1N=Nc1ccc(NC(=O)c2ccnn2C)c(C)c1",
    "viability, T/C / %": 99.7
  },
  {
    "Molecule": "CC[C@@]1(O)C(=O)OCc2c1cc1n(c2=O)Cc2cc3c(CN(C)C)c(O)ccc3nc2-1 + CC(CO)NC(=O)c1cc(-c2ccc(Cl)cc2)nn(-c2cnn(C)c2)c1=O",
    "viability, T/C / %": 95.4
  },
  {
    "Molecule": "Cn1ncnc1C1c2n[nH]c(=O)c3cc(F)cc(c23)NC1c1ccc(F)cc1 (stereo unspecified) + Cc1cncc(-c2nc(NCCc3c[nH]c4ccccc34)c3ncn(C(C)C)c3n2)c1",
    "viability, T/C / %": 105
  },
  {
    "Molecule": "Nc1ncn(C2CC(O)C(CO)O2)c(=O)n1 (stereo unspecified) + Cc1cncc(-c2nc(NCCc3c[nH]c4ccccc34)c3ncn(C(C)C)c3n2)c1",
    "viability, T/C / %": 123
  },
  {
    "Molecule": "Nc1ncn(C2CC(O)C(CO)O2)c(=O)n1 (stereo unspecified) + Cc1ccccc1N=Nc1ccc(NC(=O)c2ccnn2C)c(C)c1",
    "viability, T/C / %": 105
  }
]

----------
- System: 786-0 complex spheroids with HUVEC/MSC, growth % test/control
- Experimental Details: Anticancer human tumor 786-0 cell line growth inhibition [AhR];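 further: compound exposure lasted seven days before the read-out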
- Test Context: second compound 0.316 µM; first compound 0.00949 µM; active compounds read low

[
  {
    "Compound": "CC(C)CC(NC(=O)C(Cc1ccccc1)NC(=O)c1cnccn1)B(O)O (stereo not drawn) + CC(CO)NC(=O)c1cc(-c2ccc(Cl)cc2)nn(-c2cnn(C)c2)c1=O",
    "Unit Of Measure": "%",
    "viability, T/C": 41.9
  },
  {
    "Compound": "Nc1ncn(C2CC(O)C(CO)S2)c(=O)n1 (stereo not drawn) + CC(CO)NC(=O)c1cc(-c2ccc(Cl)cc2)nn(-c2cnn(C)c2)c1=O",
    "Unit Of Measure": "%",
    "viability, T/C": 109
  },
  {
    "Compound": "CCc1c2c(nc3ccc(O)cc13)-c1cc3c(c(=O)n1C2)COC(=O)[C@]3(O)CC + Cc1cncc(-c2nc(NCCc3c[nH]c4ccccc34)c3ncn(C(C)C)c3n2)c1",
    "Unit Of Measure": "%",
    "viability, T/C": 21
  }
]

----------
- System: 786-0 complex spheroids with HUVEC/MSC, growth % test/control
- Experimental Details: Anticancer human tumor 786-0 cell line growth inhibition [AhR];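 further: compound exposure lasted seven days before the read-out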
- Test Context: second compound 10 µM; first compound 0.316 µM; active compounds read low
- Description: Multicellular complex tumor spheroid response to aryl hydrocarbon receptor antagonists in combination with a variety of drugs and investigational agents in selected tumor cell lines […] Compounds. […] If the clinical Cmax for an agent had not been determined, the highest concentration tested was 10 microM (Table 1). […]
API: label(entry) gives class 1 if the entry's viability, T/C is strictly smaller than 50%; on equality or larger values it gives class 0.

[
  {
    "Compound": "COc1ccc([C@@H](O)c2cc(-c3ncnc4cc(N5CCOCC5)ccc34)c(F)cc2Cl)nn1 + Cc1ccccc1N=Nc1ccc(NC(=O)c2ccnn2C)c(C)c1",
    "Assigned Label": "class 0"
  },
  {
    "Compound": "Nc1ccn(C2OC(CO)C(O)C2(F)F)c(=O)n1 (configuration not stated) + Cc1ccccc1N=Nc1ccc(NC(=O)c2ccnn2C)c(C)c1",
    "Assigned Label": "class 1"
  },
  {
    "Compound": "CC1COCCN1c1cc(C2(S(C)(=N)=O)CC2)nc(-c2ccnc3[nH]ccc23)n1 (configuration not stated) + Cc1ccccc1N=Nc1ccc(NC(=O)c2ccnn2C)c(C)c1",
    "Assigned Label": "class 0"
  },
  {
    "Compound": "Nc1ccn(C2OC(CO)C(O)C2(F)F)c(=O)n1 (configuration not stated) + CC(CO)NC(=O)c1cc(-c2ccc(Cl)cc2)nn(-c2cnn(C)c2)c1=O",
    "Assigned Label": "class 1"
  },
  {
    "Compound": "COc1cc(C2c3cc4c(cc3C(OC3OC5COC(C)OC5C(O)C3O)C3COC(=O)C23)OCO4)cc(OC)c1O (configuration not stated) + Cc1ccccc1N=Nc1ccc(NC(=O)c2ccnn2C)c(C)c1",
    "Assigned Label": "class 0"
  },
  {
    "Compound": "Nc1ncn(C2CC(O)C(CO)O2)c(=O)n1 (configuration not stated) + CC(CO)NC(=O)c1cc(-c2ccc(Cl)cc2)nn(-c2cnn(C)c2)c1=O",
    "Assigned Label": "class 0"
  },
  {
    "Compound": "CC1COCCN1c1cc(-c2ccnn2C)c2ccnc(-c3ccn[nH]3)c2n1 (configuration not stated) + Cc1cncc(-c2nc(NCCc3c[nH]c4ccccc34)c3ncn(C(C)C)c3n2)c1",
    "Assigned Label": "class 1"
  },
  {
    "Compound": "COc1cccc2c1C(=O)c1c(O)c3c(c(O)c1C2=O)CC(O)(C(=O)CO)CC3OC1CC(N)C(O)C(C)O1 (configuration not stated) + Cc1ccccc1N=Nc1ccc(NC(=O)c2ccnn2C)c(C)c1",
    "Assigned Label": "class 1"
  },
  {
    "Compound": "NS(=O)(=O)OCC1CC(n2ccc3c(NC4CCc5ccccc54)ncnc32)CC1O (configuration not stated) + Cc1cncc(-c2nc(NCCc3c[nH]c4ccccc34)c3ncn(C(C)C)c3n2)c1",
    "Assigned Label": "class 1"
  },
  {
    "Compound": "NS(=O)(=O)OCC1CC(n2ccc3c(NC4CCc5ccccc54)ncnc32)CC1O (configuration not stated) + Cc1ccccc1N=Nc1ccc(NC(=O)c2ccnn2C)c(C)c1",
    "Assigned Label": "class 0"
  },
  {
    "Compound": "CC1(C)CCC(CN2CCN(c3ccc(C(=O)NS(=O)(=O)c4ccc(NCC5CCOCC5)c([N+](=O)[O-])c4)c(Oc4cnc5[nH]ccc5c4)c3)CC2)=C(c2ccc(Cl)cc2)C1 + Cc1cncc(-c2nc(NCCc3c[nH]c4ccccc34)c3ncn(C(C)C)c3n2)c1",
    "Assigned Label": "class 1"
  },
  {
    "Compound": "NS(=O)(=O)OCC1CC(n2ccc3c(NC4CCc5ccccc54)ncnc32)CC1O (configuration not stated) + CC(CO)NC(=O)c1cc(-c2ccc(Cl)cc2)nn(-c2cnn(C)c2)c1=O",
    "Assigned Label": "class 1"
  }
]

Recorded values, source PubChem BioAssay AID1919003.
